Biological target: SERT (Homo sapiens)
Sequence (P31645 whole entry): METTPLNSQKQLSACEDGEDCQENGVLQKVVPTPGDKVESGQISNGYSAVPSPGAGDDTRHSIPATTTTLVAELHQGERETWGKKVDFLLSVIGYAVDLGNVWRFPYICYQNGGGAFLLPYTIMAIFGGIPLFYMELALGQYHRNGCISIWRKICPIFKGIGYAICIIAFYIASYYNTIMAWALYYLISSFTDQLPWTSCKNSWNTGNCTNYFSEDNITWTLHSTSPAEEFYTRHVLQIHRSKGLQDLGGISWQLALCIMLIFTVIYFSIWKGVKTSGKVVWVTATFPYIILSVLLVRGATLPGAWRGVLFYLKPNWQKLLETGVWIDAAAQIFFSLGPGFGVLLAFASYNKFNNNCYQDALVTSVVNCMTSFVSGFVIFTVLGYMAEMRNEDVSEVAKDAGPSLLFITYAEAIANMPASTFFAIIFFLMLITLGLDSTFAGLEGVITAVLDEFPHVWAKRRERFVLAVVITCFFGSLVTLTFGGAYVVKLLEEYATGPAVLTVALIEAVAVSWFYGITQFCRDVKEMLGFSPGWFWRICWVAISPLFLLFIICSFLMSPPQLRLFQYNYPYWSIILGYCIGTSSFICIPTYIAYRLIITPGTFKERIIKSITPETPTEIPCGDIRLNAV
Assay: SERT efflux assay
Format: cell-based
Settings: read-out: SERT efflux EC50; concentration-response; HEK293T
measure_name: EC50 (µM)

CN1C2C=C(c3c[nH]c4ccccc34)CC1CC2 (stereo not shown) [UCD0184] | 0.582
